System: Enterobacter cloacae
Positions of bridges follow the written chain, without caps; N, C: chain ends. Non-standard residues stand in square brackets, D forms with d. Residues, ends and D or L forms follow the SMILES beside them. *: point of attachment. Benzoyl(3-CF3) = O=C(c1cccc(C(F)(F)F)c1)*; Benzoyl(4-CF3) = O=C(c1ccc(C(F)(F)F)cc1)*; Nonanoyl = CCCCCCCCC(=O)*; Dab = NCC[C@H](N)C(=O)O; Abu = CC[C@H](N)C(=O)O; Dap = NC[C@H](N)C(=O)O
Would you kindly list Minimum inhibitory concentration, Ec FADDI-EC003 for each of these molecules?

Would you please look over these solved cases?
{"columns": ["molecule", "measured result"],
 "data": [
  ["CC(C)C[C@H]1NC(=O)[C@H](CCN)NC(=O)[C@@H](NC(=O)[C@H](CN)NC(=O)[C@@H](NC(=O)[C@H](CCN)NC(=O)c2ccc(C(F)(F)F)cc2)[C@@H](C)O)CCNC(=O)[C@H]([C@@H](C)O)NC(=O)[C@H](CCN)NC(=O)[C@H](CCN)NC(=O)[C@H]([C@@H](C)O)NC1=O [Compound 56] ({Benzoyl(4-CF3)}-[Dab]T[Dap][Dab][Dab][dL]T[Dab][Dab]T; lactam 4-C)", "<0.125 µg/mL"],
  ["CCCCCCCCC(=O)N[C@@H](CCN)C(=O)N[C@H](C(=O)N[C@H](CO)C(=O)N[C@H]1CCNC(=O)[C@H]([C@@H](C)O)NC(=O)[C@H](CCN)NC(=O)[C@H](CCN)NC(=O)[C@H]([C@@H](C)O)NC(=O)[C@@H](CC(C)C)NC(=O)[C@H](CCN)NC1=O)[C@@H](C)O [Compound 17] (Nonanoyl-[Dab]T[dS][Dab][Dab][dL]T[Dab][Dab]T; lactam 4-C)", "0.25 µg/mL"]
]}

Okay, now this molecule:
Query string: // map CC[C@@H]1NC(=O)[C@@H](CC(C)C)NC(=O)[C@H](CCN)NC(=O)[C@@H](NC(=O)[C@H](CN)NC(=O)[C@@H](NC(=O)[C@H](CCN)NC(=O)c2cccc(C(F)(F)F)c2)[C@@H](C)O)CCNC(=O)[C@H]([C@@H](C)O)NC(=O)[C@H](CCN)NC(=O)[C@H](CCN)NC1=O [Compound 106] ({Benzoyl(3-CF3)}-[Dab]T[Dap][Dab][Dab][dL][Abu][Dab][Dab]T; lactam 4-C) to recorded Minimum inhibitory concentration, Ec FADDI-EC003 (system: Enterobacter cloacae)
Result string: 0.5 µg/mL
